study_system: Tyrosine-protein kinase JAK3 (Homo sapiens)
Sequence (P52333 whole entry): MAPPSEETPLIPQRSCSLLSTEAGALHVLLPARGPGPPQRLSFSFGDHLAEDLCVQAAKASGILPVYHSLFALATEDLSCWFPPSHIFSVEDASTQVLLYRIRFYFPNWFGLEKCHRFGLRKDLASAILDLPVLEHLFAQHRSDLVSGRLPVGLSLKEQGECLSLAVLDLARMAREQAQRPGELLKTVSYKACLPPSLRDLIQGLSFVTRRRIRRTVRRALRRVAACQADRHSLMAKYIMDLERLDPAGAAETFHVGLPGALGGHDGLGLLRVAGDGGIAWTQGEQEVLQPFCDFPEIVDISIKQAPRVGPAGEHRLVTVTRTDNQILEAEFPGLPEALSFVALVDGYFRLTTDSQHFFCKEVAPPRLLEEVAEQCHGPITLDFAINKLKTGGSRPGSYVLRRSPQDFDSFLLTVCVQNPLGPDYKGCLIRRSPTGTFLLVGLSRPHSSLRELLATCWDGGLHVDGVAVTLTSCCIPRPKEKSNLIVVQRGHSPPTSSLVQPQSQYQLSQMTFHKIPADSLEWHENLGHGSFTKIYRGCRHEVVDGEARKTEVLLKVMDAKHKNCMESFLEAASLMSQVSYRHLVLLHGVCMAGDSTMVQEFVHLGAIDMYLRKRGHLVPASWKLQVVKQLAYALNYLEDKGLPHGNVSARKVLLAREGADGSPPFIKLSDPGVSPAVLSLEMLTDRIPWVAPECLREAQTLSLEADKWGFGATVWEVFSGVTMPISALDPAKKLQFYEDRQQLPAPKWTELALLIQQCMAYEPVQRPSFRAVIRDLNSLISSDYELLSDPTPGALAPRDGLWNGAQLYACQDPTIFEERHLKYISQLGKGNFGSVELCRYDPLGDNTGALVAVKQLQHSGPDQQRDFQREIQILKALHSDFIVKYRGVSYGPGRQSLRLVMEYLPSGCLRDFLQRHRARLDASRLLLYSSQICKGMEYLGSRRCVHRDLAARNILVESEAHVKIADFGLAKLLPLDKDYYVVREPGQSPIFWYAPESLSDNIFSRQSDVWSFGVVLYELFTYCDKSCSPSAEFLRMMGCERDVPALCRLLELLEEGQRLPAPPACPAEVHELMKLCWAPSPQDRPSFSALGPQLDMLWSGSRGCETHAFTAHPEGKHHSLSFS
assay_summary: Inhibition of recombinant JAK3 (unknown origin) using fluoresceinated peptide as substrate after 60 mins by HTRF assay
YES if IC50 is below 0.2 µM. NO if not; exact matches included in NO.

compound	classification
CCn1c(C(=O)N(C2CC2)C2CC2)cc2c3c(ncn3C)c(Nc3ncc(C)s3)nc21	YES
CNc1nc2c(cc(C(=O)N(C3CC3)C3CC3)n2CC(C)O)c2c1ncn2C (single isomer, unassigned)	NO
CCn1c(C(=O)N(C2CC2)C2CC2)cc2c3c(ncn3C)c(NC(=O)OCCOC)nc21	NO
CCn1c(C(=O)N(C2CC2)C2CC2)cc2c3c(ncn3C)c(Nc3nccs3)nc21	YES
CNc1nc2c(cc(C(=O)N(C3CC3)C3CC3)n2C[C@H](O)CO)c2c1ncn2C	NO
CCn1c(C(=O)N(C2CC2)C2CC2)cc2c3c(ncn3C)c(NCCCOC)nc21	NO
CCn1c(C(=O)N(C2CC2)C2CC2)cc2c3c(ncn3C)c(NC)nc21	YES
